src = patent US8269000B2

# Assayed system: rat B1R (Rattus norvegicus, UniProt P97583)
# Construct: expressed in transfected cells; host or cells: CHO K1 cells
# Sequence (P97583 whole entry): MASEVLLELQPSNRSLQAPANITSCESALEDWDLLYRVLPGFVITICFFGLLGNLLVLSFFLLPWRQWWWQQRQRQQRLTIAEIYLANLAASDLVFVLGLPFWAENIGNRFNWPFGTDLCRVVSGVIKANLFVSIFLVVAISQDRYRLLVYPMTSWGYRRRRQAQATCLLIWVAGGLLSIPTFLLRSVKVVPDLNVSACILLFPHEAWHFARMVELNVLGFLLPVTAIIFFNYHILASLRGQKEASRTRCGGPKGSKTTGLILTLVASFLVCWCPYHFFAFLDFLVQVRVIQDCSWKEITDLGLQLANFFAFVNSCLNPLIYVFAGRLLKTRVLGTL
# Procedure summary: FLIPR Ca2+ functional study on bradykinin receptor 1 (rB1R CHO K1 cells)
# Type: cell-based
# Reported conditions: CHO-K1, % inhibition rat B1R at 10 μM, read-out: % inh. (rat B1R) 10 μM
Experimental readout: inhibition at 10 µM (%)

1) COc1cc(C)c(S(=O)(=O)N2CCC[C@H]2COc2ccnc(N3CCN(c4ncccn4)CC3)n2)c(C)c1 : 56
2) COc1cc(C)c(S(=O)(=O)N(C)C(COc2nccc(N3CCN(C(=O)c4cccnc4)CC3)n2)c2ccccc2)c(C)c1 (centres unmarked) : 55
3) COc1cc(C)c(S(=O)(=O)N2c3ccccc3C[C@H]2COc2nccc(N(C)CCN3CCC(c4ccccc4)(N4CCCC4)CC3)n2)c(C)c1 : 101
4) COc1cc(C)c(S(=O)(=O)N2c3ccccc3C[C@H]2COc2ccnc(N3CCN(C)CC3)n2)c(C)c1 : 67
5) COc1cc(C)c(S(=O)(=O)N(C)CCOc2nccc(N3CCC4(CC3)OCc3ccccc34)n2)c(C)c1 : 52
6) COc1cc(C)c(S(=O)(=O)N2CC(Oc3ccnc(N4CCC5(CCN(c6ccncc6)CC5)CC4)n3)C2)c(C)c1 : 80
7) COc1cc(C)c(S(=O)(=O)N(C)CCOc2nccc(N3CCC4(CC3)C(=O)NCN4c3ccccc3)n2)c(C)c1 : 79
8) COc1cc(C)c(S(=O)(=O)N(CCCc2cncc(N3CCC4(CCN(c5ccncc5)CC4)CC3)n2)C2CC2)c(C)c1 : 97
9) COc1cc(C)c(S(=O)(=O)N2CC(Oc3nccc(N4CCC(O)(c5cccnc5)CC4)n3)C2)c(C)c1 : 57
10) COc1cc(C)c(S(=O)(=O)N2CCCCC2COc2nccc(N3CCC(N4CCN(C)CC4)CC3)n2)c(C)c1 (centres unmarked) : 96
11) COc1cc(C)c(S(=O)(=O)N(C)CCOc2nccc(N(C)CCCN3CCC(c4ccccc4)(N(C)C)CC3)n2)c(C)c1 : 89
12) COc1cc(C)c(S(=O)(=O)N2CCC[C@H]2COc2nccc(N3CCN(C4CCN(C)CC4)CC3)n2)c(C)c1 : 102
13) CCCCC1(N(C)C)CCN(CCN(C)c2nccc(OC3CCCN(S(=O)(=O)c4c(C)cc(OC)cc4C)C3)n2)CC1 (centres unmarked) : 95
14) COc1cc(C)c(S(=O)(=O)N(C)CCOc2nccc(N3CCC(CCN4CCCC4)CC3)n2)c(C)c1 : 99

* * *

# Assayed system: human B1R (Homo sapiens, UniProt P46663)
# Construct: expressed in transfected cells; host or cells: CHO K1 cells
# Sequence (P46663 whole entry): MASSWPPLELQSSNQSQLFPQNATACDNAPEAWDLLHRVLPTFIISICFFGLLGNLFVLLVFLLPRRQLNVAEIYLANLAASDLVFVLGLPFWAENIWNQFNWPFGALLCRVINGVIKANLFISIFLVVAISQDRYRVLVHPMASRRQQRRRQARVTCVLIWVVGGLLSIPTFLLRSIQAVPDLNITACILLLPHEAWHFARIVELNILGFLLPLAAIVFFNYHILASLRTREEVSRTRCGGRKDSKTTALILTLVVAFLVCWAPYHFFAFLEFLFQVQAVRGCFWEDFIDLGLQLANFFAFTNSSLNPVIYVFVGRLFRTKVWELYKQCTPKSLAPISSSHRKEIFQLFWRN
# Procedure summary: FLIPR Ca2+ functional study on bradykinin receptor 1 (hB1R CHO K1 cells)
# Type: cell-based
# Reported conditions: % inhibition human B1R at 10 μM, read-out: % inh. (hum. B1R) 10 μM
Where a name gives a salt, the structure may show the parent alone.
The compounds listed here are annotated with their inhibition at 10 µM.
Experimental readout: inhibition at 10 µM

1) COc1cc(C)c(S(=O)(=O)N(CCOc2nccc(N3CCC4(CCC(N5CCC5)CC4)CC3)n2)C2CC2)c(C)c1 [Example G-015, hydrochloride] : 99%
2) COc1cc(C)c(S(=O)(=O)N(C)CCOc2nccc(N3CCC4(CCN(c5ccncc5)CC4)CC3)n2)c(C)c1 : 100%
3) COc1cc(C)c(S(=O)(=O)N2CCCCC2COc2nccc(N3CCC(OCCN4CCCC4)(c4cccnc4)CC3)n2)c(C)c1 (stereo not shown) : 99%
4) COc1cc(C)c(S(=O)(=O)N2CC(Oc3ccnc(N4CCC5(CCN(c6ccncc6)CC5)CC4)n3)C2)c(C)c1 : 11%

* * *

The molecules listed here are annotated with their inhibition at 10 µM.
# Assayed system: rat B1R (Rattus norvegicus, UniProt P97583)
# Construct: expressed in transfected cells; host or cells: CHO K1 cells
# Procedure summary: FLIPR Ca2+ functional study on bradykinin receptor 1 (rB1R CHO K1 cells)
# Assay type: cell-based
# Reported conditions: CHO-K1, % inhibition rat B1R at 10 μM, read-out: % inh. (rat B1R) 10 μM
Experimental readout: inhibition at 10 µM (%)

1) Cc1ccc(Cl)c(S(=O)(=O)N(CCOc2nccc(N3CCC4(CCN(c5ccncc5)CC4)CC3)n2)C2CC2)c1Cl : 86
2) COc1cc(C)c(S(=O)(=O)N(C)CCOc2nccc(N3CCN(c4ccc(F)cc4)CC3)n2)c(C)c1 : 81
3) COc1cc(C)c(S(=O)(=O)N2CCC[C@H]2COc2nccc(N3CCC(n4c(=O)[nH]c5cc(Cl)ccc54)CC3)n2)c(C)c1 : 93
4) COc1cc(C)c(S(=O)(=O)N2CCCCC2COc2nccc(N(C)CCN3CCC(c4ccccc4)(N4CCCC4)CC3)n2)c(C)c1 (stereo not shown) : 101
5) COc1cc(C)c(S(=O)(=O)N2CCCCC2COc2nccc(N3CCC(OCCN4CCCC4)(c4cccnc4)CC3)n2)c(C)c1 (stereo not shown) : 73
6) COc1cc(C)c(S(=O)(=O)N2c3ccccc3C[C@H]2COc2nccc(N3CC4CC3CN4Cc3ccc(F)cc3)n2)c(C)c1 (stereo partly shown) : 61
7) COc1cc(C)c(S(=O)(=O)N2CC(Oc3nccc(N(C)CCCN4CCC(c5ccccc5)(N(C)C)CC4)n3)C2)c(C)c1 : 77

* * *

The molecules listed here are annotated with their inhibition at 10 µM.
# Assayed system: human B1R (Homo sapiens)
# Construct: expressed in transfected cells; host or cells: CHO K1 cells
# Procedure summary: FLIPR Ca2+ functional study on bradykinin receptor 1 (hB1R CHO K1 cells)
# Format: cell-based
# Reported conditions: % inhibition human B1R at 10 μM, read-out: % inh. (hum. B1R) 10 μM
Counter-ions that a name gives are not always drawn.
Experimental readout: inhibition at 10 µM (%)

1) COc1cc(C)c(S(=O)(=O)N(CCOc2nccc(N3CCC4(CCC(Oc5ccncc5)CC4)CC3)n2)C2CC2)c(C)c1 [Example G-016] : 96
2) O=S(=O)(c1ccccc1C(F)(F)F)N(CCOc1nccc(N2CCC3(CCN(c4ccncc4)CC3)CC2)n1)C1CC1 [Example G-010] : 98
3) COc1cc(C)c(S(=O)(=O)N(C)CCOc2ccnc(N(C)CCN3CCC(c4ccccc4)(N(C)C)CC3)n2)c(C)c1 [Example H-003] : 90
4) COc1cc(C)c(S(=O)(=O)N(CCOc2nccc(N3CCC4(CCC(N5CC(F)(F)C5)CC4)CC3)n2)C2CC2)c(C)c1 [Example G-017] : 22
5) COc1cc(C)c(S(=O)(=O)N(CCOc2nccc(N3CCC4(CCN(c5ccncc5)CC4)CC3)n2)C2CC2)c(C)c1 [Example G-005, hydrochloride] : 99
6) COc1cc(C)c(S(=O)(=O)N2CCC[C@H]2COc2nccc(N3CCC4(CCN(Cc5ccc(F)cc5)C4=O)CC3)n2)c(C)c1 [G_CC-051] : 38
7) COc1cc(C)c(S(=O)(=O)N(CCOc2nccc(N3CC(N4CCc5cc(CN6CCC6)ccc5C4)C3)n2)C2CC2)c(C)c1 [Example G-020] : 95
8) Cc1cccc(Cl)c1S(=O)(=O)N(CCOc1nccc(N2CCC3(CCN(c4ccncc4)CC3)CC2)n1)C1CC1 [Example G-009] : 97
9) COc1cc(C)c(S(=O)(=O)N(CCOc2nccc(N3CCC4(CCN(c5ccncc5)CC4)C3)n2)C2CC2)c(C)c1 [Example G-019] : 100
10) COc1cc(C)c(S(=O)(=O)N2CCCCC2COc2ccnc(N(C)CCN3CCC(c4ccccc4)(N(C)C)CC3)n2)c(C)c1 (centres unmarked) [Example H-004] : 99
11) COc1cc(C)c(S(=O)(=O)N2CCC[C@H]2COc2nccc(N3CCN(c4ccncc4)CC3)n2)c(C)c1 [G_CC-019] : 100
12) COc1cc(C)c(S(=O)(=O)N(C)CCOc2ccnc(N3CCC(CCN4CCCC4)CC3)n2)c(C)c1 [Example H-001] : 44
13) COc1cc(C)c(S(=O)(=O)N2CCCCC2COc2nccc(N3CCN(CC4CCN(C)CC4)CC3)n2)c(C)c1 (centres unmarked) [G_CC-014] : 94
14) COc1cc(C)c(S(=O)(=O)N(CCN(C)c2cc(N3CCC4(CCN(c5ccncc5)CC4)CC3)ncn2)C2CC2)c(C)c1 [Example I-003] : 96

* * *

The compounds listed here are annotated with their inhibition at 10 µM.
# Assayed system: rat B1R (Rattus norvegicus)
# Construct: expressed in transfected cells; host or cells: CHO K1 cells
# Procedure summary: FLIPR Ca2+ functional study on bradykinin receptor 1 (rB1R CHO K1 cells)
# Assay type: cell-based
# Reported conditions: CHO-K1, % inhibition rat B1R at 10 μM, read-out: % inh. (rat B1R) 10 μM
Experimental readout: inhibition at 10 µM (%)

1) COc1cc(C)c(S(=O)(=O)N2CCCC(Oc3ccnc(N4CCC(c5ccccc5)(N(C)C)CC4)n3)C2)c(C)c1 (stereo not drawn) : 61
2) COc1cc(C)c(S(=O)(=O)N2CC(Oc3ccnc(N(C)CCCN4CCC(c5ccccc5)(N(C)C)CC4)n3)C2)c(C)c1 : 59
3) COc1cc(C)c(S(=O)(=O)N(C)CCOc2ccnc(N(C)CCN3CCC(c4ccccc4)(N(C)C)CC3)n2)c(C)c1 : 59
4) COc1cc(C)c(S(=O)(=O)N2CCC[C@H]2COc2ccnc(N(C)CCN3CCC(c4ccccc4)(N4CCCC4)CC3)n2)c(C)c1 : 92
5) COc1cc(C)c(S(=O)(=O)N(CCOc2cc(N3CCC4(CCN(c5ccncc5)CC4)CC3)ncn2)C2CC2)c(C)c1 : 88
6) COc1cc(C)c(S(=O)(=O)N2CCCCC2COc2nccc(N3CCC(O)(c4ccncc4)CC3)n2)c(C)c1 (stereo not drawn) : 90
